target: T1, Soluble heterodimeric CD3 protein (hCD3-epsilon/hCD3-delta) with either a human Fc tag (hFcΔAdp/hFc) or a … (human, UniProt P07766 23-126; P04234 22-105); assay: SPR Biacore 25C antibody-capture
T1 construct: also called hCD3ε/δ; not shown: Fc tag: human (hFcΔAdp/hFc)
T1 sequence (P07766 23-126 limits assumed, stated change not applied, chain 1 of 2): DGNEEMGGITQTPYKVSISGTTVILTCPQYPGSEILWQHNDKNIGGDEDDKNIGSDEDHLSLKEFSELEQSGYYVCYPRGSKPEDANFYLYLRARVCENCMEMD
T1 sequence (P04234 22-105 limits assumed, stated change not applied, chain 2 of 2): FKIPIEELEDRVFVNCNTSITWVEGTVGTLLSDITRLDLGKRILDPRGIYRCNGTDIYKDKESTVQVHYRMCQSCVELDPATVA
result_type: kon
Could you kindly put the unit after your number?

Example binders with recorded kon:
H1H5763P (antibody, human IgG1, V domains shown, H1H: human IgG1 Fc; divalent) VH: QVQLVESGGGVVQPGRSLRLSCAASGLTFSSYGMHWVRQAPGKGLEWVAVISYDGSNKYYTDSVKGRFTISRDNSKNTLYLQMNSLRAEDTAVYYCAKGAMVRGVPYNYYYGMDVWGQGTTVTVSS VL: DIQMTQSPSSLSASVGDRVTITCRASQGIRNDLGWYQQKPGKAPKRLIYAASSLQSGVPSRFSGSGSGTEFTLTISSLQPEDFATYYCLQHNSYPYTFGQGTKLEIK :: 18500 M⁻¹ s⁻¹
H1H5786B (antibody, human IgG1, V domains shown, H1H: human IgG1 Fc; divalent) VH: QVQLVESGAEVKKPGASVKVSCKTSGYTFTGYYMHWIRQAPGQGLEWMGWINPKSGGTNYAQKFQGRVTMTRDTSISTAYMELSRLRSDDMAVYYCARMGDGAVFDFWGQGTLVTVSS VL: AIQMTQSPSSLSASVGDRVTITCRASQRISSFLNWYQQKPGKAPKLLIYTASNLQNGVPSRFSGSGSGTDFTLTISSLQPEDFATYYCQQSYRTPLTFGGGTKVEIKR :: 12600 M⁻¹ s⁻¹

# ---- query binder ----
Request: Tell us which kon value is on record for H1H5801B (antibody, human IgG1, V domains shown, H1H: human IgG1 Fc; divalent) VH: QVQLVQSGGGVVQPGGSLRLSCAASGFTFDDYAMHWVRQAPGKGLEWVSLISGDGGSTYYADSVKGRFTISRDNSKNSLYLQMNSLRTEDTALYYCAKDDSSSSWYYYYYGMDVWGRGTTVTVSS VL: DIQMTQSPSSLSASVGDRVTITCRASQRISSYLNWYQQKPGKAPKVLISVASSLQSGVPSRFSGSGSGTDFTLTISSLQPEDFASYYCQQSYNTPLTFGGGTKVEIKR
Result: 6570 M⁻¹ s⁻¹
